# Test system: T1, human GIPR (human), P48546
# T1 chain: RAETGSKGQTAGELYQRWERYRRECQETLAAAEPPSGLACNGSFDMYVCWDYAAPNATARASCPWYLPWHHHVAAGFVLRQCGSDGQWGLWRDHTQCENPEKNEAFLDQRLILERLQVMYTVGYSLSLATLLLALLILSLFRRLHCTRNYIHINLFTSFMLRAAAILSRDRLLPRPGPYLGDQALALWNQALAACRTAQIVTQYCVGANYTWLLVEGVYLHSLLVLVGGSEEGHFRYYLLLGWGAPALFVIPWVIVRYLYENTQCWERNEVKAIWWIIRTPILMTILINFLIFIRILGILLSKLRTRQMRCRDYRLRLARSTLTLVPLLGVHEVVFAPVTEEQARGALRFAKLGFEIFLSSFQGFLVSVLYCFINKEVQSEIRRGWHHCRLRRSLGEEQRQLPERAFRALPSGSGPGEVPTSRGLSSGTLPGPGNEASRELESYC
Non-standard residues stand in square brackets, D forms with d. Groups on a side chain read outwards from the residue. Primed or numbered codes have the meaning given here. No end group written: not given here. *: point of attachment. C20 diacid = O=C(O)CCCCCCCCCCCCCCCCCCC(=O)*; Undecanoyl = CCCCCCCCCCC(=O)*; Iva = CC[C@](C)(N)C(=O)O; PEG2′ = not defined here; Aib = CC(C)(N)C(=O)O
Result type: Agonist activity (EC50, M)
Please state the value followed by its unit.

Binder | Reported value
Y[Aib]EGTFISDYSK([PEG2′-Undecanoyl])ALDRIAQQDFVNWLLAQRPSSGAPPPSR (ends and bridges not checked) [Compound 183] | 3.4e-12 M

Attention now turns to another entry.
In: Quick check: Agonist activity (EC50, M) of Y[Aib]EGTFISDYSK([PEG(2)-C20 diacid])ALDRIAQQNFVNW[Iva]LAQRPSSGAPPPS (not fully specified (C-terminus); ends and bridges not checked) [Compound 406] ?
Out: 3.2e-10 M
